Target Desc: UniProt:P04629
Protocol Details: Measurement of TrkA enzyme-inhibiting activity (LanthaScreen TR-FRET kinase assay)
Format: biochemical
Condition Set: final ATP 150 μM, read-out: TrkA inhibitory activity (IC50; μM)
molecules and their reported IC50
Just the number plus its unit, please.

CC(C)(C)c1cc(NC(=O)Nc2cnc(Oc3ccc(-c4cnc(N5CCCC5=O)s4)cc3)nc2)n(-c2ccc3c(c2)CCO3)n1 [Example 66-19] = 0.02 µM
CC(C)(C)c1cc(NC(=O)Nc2cnc(Oc3ccc(-c4cnc(N5CCCC5=O)s4)cc3)nc2)n(C2CCOCC2)n1 [Example 80-2] = 0.07 µM

Request - read-out IC50 | tested on UniProt:P04629 | molecule O=C(Nc1cnc(Oc2ccc(-c3cnc(N4CCCC4=O)s3)cc2)nc1)Nc1cc(C(F)(F)F)cnc1-c1ccccc1 [Example 54]
0.04 µM

Can you look up IC50 on UniProt:P04629 for O=C(Nc1cnc(Oc2ccc(-c3cnc(N4CCCC4=O)s3)cc2)nc1)Nc1cc(C2CC2)nn1-c1ccccc1 [Example 72-7] ?
0.03 µM

----------
Target Desc: TrkA (Homo sapiens (Human))
Sequence (P04629 33-796): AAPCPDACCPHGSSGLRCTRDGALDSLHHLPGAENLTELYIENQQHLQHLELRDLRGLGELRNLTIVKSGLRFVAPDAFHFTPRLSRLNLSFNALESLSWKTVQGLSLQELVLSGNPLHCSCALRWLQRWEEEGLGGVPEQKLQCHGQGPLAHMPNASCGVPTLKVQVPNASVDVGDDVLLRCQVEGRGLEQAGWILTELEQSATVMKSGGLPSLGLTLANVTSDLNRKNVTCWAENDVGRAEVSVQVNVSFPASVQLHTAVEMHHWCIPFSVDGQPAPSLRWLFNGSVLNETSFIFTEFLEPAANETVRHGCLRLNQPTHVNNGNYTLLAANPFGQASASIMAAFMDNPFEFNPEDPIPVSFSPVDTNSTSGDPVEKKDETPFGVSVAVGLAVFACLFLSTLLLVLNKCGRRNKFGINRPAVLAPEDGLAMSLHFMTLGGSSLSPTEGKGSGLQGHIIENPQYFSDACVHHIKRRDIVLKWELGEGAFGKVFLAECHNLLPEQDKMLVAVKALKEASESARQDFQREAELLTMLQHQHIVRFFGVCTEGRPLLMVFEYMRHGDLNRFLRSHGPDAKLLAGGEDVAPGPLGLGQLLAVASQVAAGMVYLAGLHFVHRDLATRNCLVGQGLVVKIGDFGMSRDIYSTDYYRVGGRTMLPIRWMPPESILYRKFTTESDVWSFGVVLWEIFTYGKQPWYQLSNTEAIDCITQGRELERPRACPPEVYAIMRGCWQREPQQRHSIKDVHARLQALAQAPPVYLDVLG
Protocol Details: TrkA kinase-inhibiting activity using human TrkA expressing cells (CellSenser TrkA-NFAT-bla CHO-K1, NGF-stimulated reporter assay)
Assay type: cell-based
Condition Set: CHO-K1 cells expressing human TrkA and NFAT-bla; NGF 50 ng/ml; read-out: TrkA inhibitory activity (IC50; μM)
Measurement Name: IC50 (µM)
Numeric only. Scale: µM

Cc1ccccc1-n1nc(C(F)(F)F)cc1NC(=O)Nc1cnc(Oc2ccc(-c3cnc(N4CCCC4=O)s3)cc2)nc1 = 0.011
CC(C)(C)c1cc(NC(=O)Nc2cnc(Oc3ccc(-c4cnc(N5CCCC5=O)s4)cc3)nc2)n(-c2ccc3c(c2)CCO3)n1 = 0.004
CCNc1ncc(-c2ccc(Oc3ccc(NC(=O)Nc4cc(C(F)(F)F)cnc4-c4ccc(C)c(C)c4)cn3)cc2)s1 = 0.006
O=C(Nc1cnc(Oc2ccc(-c3cnc(N4CCCC4=O)s3)cc2)nc1)Nc1cc(C(F)(F)F)cnc1-c1ccc(C(F)(F)F)nc1 = 0.012

Name the recorded IC50 for COC(=O)c1cccc(-n2nc(C(C)(C)C)cc2NC(=O)Nc2cnc(Oc3ccc(-c4cnc(N5CCCC5=O)s4)cc3)nc2)c1 .
0.01

Endpoint output: IC50 of CCCNc1ncc(-c2ccc(Oc3ncc(NC(=O)Nc4cc(C(F)(F)F)ccc4S(C)(=O)=O)cn3)cc2)s1 . Value?
0.001

What does the data say about its IC50? Entry: Cn1ncc2cc(-n3nc(C(C)(C)C)cc3NC(=O)Nc3cnc(Oc4ccc(-c5cnc(N6CCCC6=O)s5)cc4)nc3)ccc21
0.002

Given the compound Cc1ccc(-c2ncc(C(F)(F)F)cc2NC(=O)Nc2cnc(Oc3ccc(-c4cnc(N5CCCCCC5=O)s4)cc3)nc2)cc1C , what is its reported IC50?
0.07

Field request: IC50 | item: O=C(Nc1cnc(Oc2ccc(-c3cnc(N4CCCCC4=O)s3)cc2)nc1)Nc1cc(C(F)(F)F)cnc1-c1ccc(C(F)(F)F)nc1
0.093

Look up IC50: CC(=O)Nc1ccc(-n2nc(C(C)(C)C)cc2NC(=O)Nc2cnc(Oc3ccc(-c4cnc(N5CCCC5=O)s4)cc3)nc2)cc1
0.014
